# Tested system: T1, DLG1 PDZ2 (His-tagged, aa 311-407) (human, UniProt Q12959 311-407)
# T1 construct: human DLG1, PDZ2, aa 311-407, in a modified pRSET vector; also called DLG PDZ2; source: E. coli BL21 Gold (DE3), purified (Ni2+ Sepharose), dialysed
# T1 sequence (Q12959 311-407): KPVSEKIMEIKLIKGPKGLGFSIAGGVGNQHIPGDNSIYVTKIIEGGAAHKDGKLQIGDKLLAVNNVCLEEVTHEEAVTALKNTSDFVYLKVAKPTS
# Measurement notes: MST; FITC-labeled peptide fixed at 25-50 nM, protein (Scribble PDZ1 or DLG1 PDZ2) in a 1:1 dilution series; 50 mM Tris-HCl pH 7.4, 0.1% Tween-20; thermophoresis and T-Jump signal; n = 3
# Condition description: both partners purified
Square brackets hold non-standard residues; d marks the D form. Ends that are not written are not given here. * marks the point of attachment. FITC = O=C1OC2(c3ccc(O)cc3Oc3cc(O)ccc32)c2ccc(NC(=S)*)cc21; pS = N[C@@H](COP(=O)(O)O)C(=O)O
# reported Kd; entries follow
The figure you give is taken to be in µM; do not add the unit.

{FITC}-HTNETSL (C-terminal peptide of human MCC (colorectal mutant cancer protein); also called wild-type MCC peptide; source: synthetic peptide, bought: GeneCust) [FITC-HTNETSL (MCC peptide, unphosphorylated)]; 6.4

Look up Kd for this binder: {FITC}-HTNET[pS]L (C-terminal peptide of human MCC; also called pMCC; source: synthetic peptide, bought: GeneCust) [FITC-HTNETpSL (MCC peptide, phosphorylated at p-1)] 57
